# Test system: Streptococcus pyogenes C203
# TEST_DETAILS: In vivo protection of mice experimentally infected with S. pyogenes C203
# PARTICULARS: Streptococcus pyogenes, C203; mice; oral; doses given 1 and 4 hours post-infection; read-out: ED50, Oral
REPORTED_METRIC: ED50

// lookup ED50 | system=Streptococcus pyogenes C203 | key= CCC1OC(=O)CC(O)C(C)C(OC2OC(C)C(OC3CC(C)(O)C(O)C(C)O3)C(N(C)C)C2O)C(CCN=[N+]=[N-])CC(C)C(=O)C=CC(C)=CC1COC1OC(C)C(O)C(OC)C1OC (stereo not shown)
18 mg/kg

Requested read-out ED50, target or system Streptococcus pyogenes C203, entry CCC1OC(=O)CC(O)C(C)C(OC2OC(C)C(OC3CC(C)(O)C(O)C(C)O3)C(N(C)C)C2O)C(CCSc2nnnn2C)CC(C)C(=O)C=CC(C)=CC1COC1OC(C)C(O)C(OC)C1OC (stereo not shown)
56 mg/kg

API: value(readout= ED50, system= Streptococcus pyogenes C203, query= CCC1OC(=O)CC(O)C(C)C(OC2OC(C)C(O)C(N(C)C)C2O)C(CCOc2ccc([N+](=O)[O-])cc2)CC(C)C(=O)C=CC(C)=CC1COC1OC(C)C(O)C(OC)C1OC (stereo not shown) )
5 mg/kg

Tell me reported ED50 for CCC1OC(=O)CC(O)C(C)C(OC2OC(C)C(OC3CC(C)(O)C(O)C(C)O3)C(N(C)C)C2O)C(CCCl)CC(C)C(=O)C=CC(C)=CC1COC1OC(C)C(O)C(OC)C1OC (stereo not shown) , tested with Streptococcus pyogenes C203.
11 mg/kg

====

# System: Pasteurella multocida
# TEST_DETAILS: Oral (gavage) treatment of Pasteurella multocida-infected chicks
# Type: in vivo, one-day-old chicks
# PARTICULARS: 0.5 g/gal equivalent
REPORTED_METRIC: Number of Deaths/Number tested

Data request, read-out Number of Deaths/Number tested, for CCOC(=O)C1CSC(CC2CC(C)C(=O)C=CC(C)=CC(COC3OC(C)C(O)C(OC)C3OC)C(CC)OC(=O)CC(O)C(C)C2OC2OC(C)C(O)C(N(C)C)C2O)N1 (centres unmarked)
3/10

Quick check: Number of Deaths/Number tested of CCC1OC(=O)CC(O)C(C)C(OC2OC(C)C(O)C(N(C)C)C2O)C(CCOC(C)=O)CC(C)C(=O)C=CC(C)=CC1COC1OC(C)C(O)C(OC)C1OC (centres unmarked) ?
0/10

Suppose we examine the compound CCC1OC(=O)CC(O)C(C)C(OC2OC(C)C(O)C(N(C)C)C2O)C(CCSc2ccccc2)CC(C)C(=O)C=CC(C)=CC1COC1OC(C)C(O)C(OC)C1OC (centres unmarked) ; what Number of Deaths/Number tested value has been reported?
8/10

Fill blank: measured Number of Deaths/Number tested of the compound CCC1OC(=O)CC(O)C(C)C(OC2OC(C)C(O)C(N(C)C)C2O)C(CCF)CC(C)C(=O)C=CC(C)=CC1COC1OC(C)C(O)C(OC)C1OC (centres unmarked) is ____.
6/10

// returns reported Number of Deaths/Number tested for input CCC1OC(=O)CC(O)C(C)C(OC2OC(C)C(O)C(N(C)C)C2O)C(CCOc2ccc([N+](=O)[O-])cc2)CC(C)C(=O)C=CC(C)=CC1COC1OC(C)C(O)C(OC)C1OC (centres unmarked)
7/10

====

# Tested on: Streptococcus pyogenes C203
# TEST_DETAILS: In vivo protection of mice experimentally infected with S. pyogenes C203
# PARTICULARS: mice; subcutaneous; doses given 1 and 4 hours post-infection
REPORTED_METRIC: ED50, Subcutaneous

What measured ED50, Subcutaneous is associated with CC[C@H]1OC(=O)C[C@@H](O)[C@H](C)[C@@H](O[C@@H]2O[C@H](C)[C@H](O)[C@H](N(C)C)[C@H]2O)[C@@H](CCOc2ccccc2)C[C@@H](C)C(=O)/C=C/C(C)=C/[C@@H]1COC1O[C@H](C)[C@@H](O)[C@@H](OC)[C@H]1OC (some centres unmarked) on Streptococcus pyogenes C203?
1.5 mg/kg × 2

Form field - read-out: ED50, Subcutaneous; system: Streptococcus pyogenes C203; submitted item: CCC(=O)OC1C(OC2C(CCCl)CC(C)C(=O)C=CC(C)=CC(COC3OC(C)C(O)C(OC)C3OC)C(CC)OC(=O)CC(O)C2C)OC(C)C(O)C1N(C)C (centres unmarked)
3.3 mg/kg × 2

Find the measured ED50, Subcutaneous: item CCC1OC(=O)CC(O)C(C)C(OC2OC(C)C(O)C(N(C)C)C2O)C(CCS(=O)(=O)c2ccc(C)cc2)CC(C)C(=O)C=CC(C)=CC1COC1OC(C)C(O)C(OC)C1OC (centres unmarked) , target or system Streptococcus pyogenes C203.
4.2 mg/kg × 2

Under Streptococcus pyogenes C203: ED50, Subcutaneous value of CCC1OC(=O)CC(O)C(C)C(OC2OC(C)C(O)C(N(C)C)C2O)C(CCOc2cc(Cl)cc(Cl)c2)CC(C)C(=O)C=CC(C)=CC1COC1OC(C)C(O)C(OC)C1OC (centres unmarked) ?
> 10 mg/kg × 2

Value wanted: ED50, Subcutaneous (Streptococcus pyogenes C203) of entry CCC1OC(=O)CC(O)C(C)C(OC2OC(C)C(O)C(N(C)C)C2O)C(CCOc2ccccc2)CC(C)C(=O)C=CC(C)=CC1COC1OC(C)C(O)C(O)C1OC (centres unmarked)
3.2 mg/kg × 2

====

Provide the recorded MIC for the entries that follow.
# Tested on: Pasteurella multocida 17E
# TEST_DETAILS: MIC, broth-dilution microtiter test, Pasteurella multocida 17E
# Assay type: cell-based
# PARTICULARS: Pasteurella multocida, 17E
The reply should contain only the number, in µg/mL.

Any idea what MIC was measured for CCC1OC(=O)CC(O)C(C)C(OC2OC(C)C(O)C(N(C)C)C2O)C(CCOC(C(F)(F)F)C(F)(F)F)CC(C)C(=O)C=CC(C)=CC1COC1OC(C)C(O)C(OC)C1OC (stereo not drawn) [Compound 32] ?
50

// MIC lookup, key: CCC1OC(=O)CC(O)C(C)C(OC2OC(C)C(O)C(N(C)C)C2O)C(CC2SCCN2Cc2ccccc2)CC(C)C(=O)C=CC(C)=CC1COC1OC(C)C(O)C(OC)C1OC (stereo not drawn) [Compound 77]
12.5

Consider the molecule CCC1OC(=O)CC(O)C(C)C(OC2OC(C)C(O)C(N(C)C)C2O)C(CCOc2ccc(OC)cc2)CC(C)C(=O)C=CC(C)=CC1COC1OC(C)C(O)C(OC)C1OC (stereo not drawn) [Compound 35, 20-DH-20-O-(p-Methoxyphenyl)desmycosin] and give its measured MIC.
12.5

Which MIC is reported for this molecule? CCC1OC(=O)CC(O)C(C)C(OC2OC(C)C(O)C(N(C)C)C2O)C(CCOc2ccc([N+](=O)[O-])cc2)CC(C)C(=O)C=CC(C)=CC1COC1OC(C)C(O)C(OC)C1OC (stereo not drawn) [Compound 34, 20-DH-20-O-(p-Nitrophenyl)desmycosin]
12.5

# query: MIC of entry CCC1OC(=O)CC(O)C(C)C(OC2OC(C)C(O)C(N(C)C)C2O)C(CCSc2ccccc2)CC(C)C(=O)C=CC(C)=CC1COC1OC(C)C(O)C(OC)C1OC (stereo not drawn) [Compound 23, 20-DH-DO-20-(phenylthio)desmycosin]
12.5

Which MIC value belongs to CCC1OC(=O)CC(O)C(C)C(OC2OC(C)C(O)C(N(C)C)C2O)C(CCOc2ccc(C(=O)c3ccccc3)cc2)CC(C)C(=O)C=CC(C)=CC1COC1OC(C)C(O)C(OC)C1OC (stereo not drawn) [Compound 37, 20-DH-20-O-(p-Benzoylphenyl)desmycosin] ?
12.5

====

# System: Staphylococcus epidermidis EPI1
# TEST_DETAILS: MIC, standard agar-dilution assay, Staphylococcus epidermidis EPI1
# Format: cell-based
# PARTICULARS: Staphylococcus epidermidis, EPI1
Record form. Attribute: MIC. Fill in for each entry.
Remember to put the unit after the number in your answer.

MIC for CCC1OC(=O)CC(O)C(C)C(OC2OC(C)C(OC3CC(C)(O)C(O)C(C)O3)C(N(C)C)C2O)C(CCNC(=O)Cc2ccccc2)CC(C)C(=O)C=CC(C)=CC1COC1OC(C)C(O)C(OC)C1OC (centres unmarked) ?
0.5 µg/mL

// lookup MIC for CCC1OC(=O)CC(O)C(C)C(OC2OC(C)C(O)C(N(C)C)C2O)C(CCOCCc2ccccc2)CC(C)C(=O)C=CC(C)=CC1COC1OC(C)C(O)C(OC)C1OC (centres unmarked)
0.25 µg/mL

# query: MIC of entry CCC1OC(=O)CC(O)C(C)C(OC2OC(C)C(O)C(N(C)C)C2O)C(CCOc2ccc(C(=O)c3ccccc3)cc2)CC(C)C(=O)C=CC(C)=CC1COC1OC(C)C(O)C(OC)C1OC (centres unmarked)
0.25 µg/mL

// lookup MIC for CCC1OC(=O)CC(O)C(C)C(OC2OC(C)C(OC3CC(C)(O)C(O)C(C)O3)C(N(C)C)C2O)C(CCOc2ccc([N+](=O)[O-])cc2)CC(C)C(=O)C=CC(C)=CC1COC1OC(C)C(O)C(OC)C1OC (centres unmarked)
1 µg/mL

I am curious: what MIC value has been reported for CCC1OC(=O)CC(O)C(C)C(OC2OC(C)C(O)C(N(C)C)C2O)C(CCOC(C(F)(F)F)C(F)(F)F)CC(C)C(=O)C=CC(C)=CC1COC1OC(C)C(O)C(OC)C1OC (centres unmarked) ?
0.5 µg/mL

The values you see were collected from patent US4443436A.
